- Tested on: Plasmodium falciparum apicoplast DNA polymerase (apPOL)
- assay-overview: Pf-apPOL inhibitors, biochemical, fluorescence (AID 1794808)
- run-parameters: Recombinant Pf-apPOL, molecular beacon fluorescence, 1.5 h; at 10 µM
The whole screen tested about 210,000 compounds, of which about 520 (0.25%) were called active. Cut-off read from the data, not from the text of the source: active = inhibition above about 50%; inactive = the rest. The full list was thinned out, with actives kept by preference.
Labels: active, inactive

- compound: "COC(=O)c1ccccc1OC1OC(CO)C(O)C(O)C1NC(C)=O (centres undefined)"
  label: "inactive"
- compound: "O=C(CSc1nnc(SCC(=O)NCCSCc2ccco2)s1)NCCSCc1ccco1"
  label: "active"
- compound: "CC(C)(C)c1ccc(CC(=O)c2ccc(O)cc2O)cc1"
  label: "inactive"
- compound: "O=C(Nc1ccc(F)c(Cl)c1)c1noc2c1CCCCC2"
  label: "inactive"
- compound: "Cc1nccn1Cc1nc(-c2ccc(F)c(Br)c2)no1"
  label: "inactive"
- compound: "Cc1cccc(NS(=O)(=O)c2c(C)n[nH]c2C)c1C"
  label: "inactive"
- compound: "COC(=O)Nc1nc(CC(=O)NCc2ccco2)cs1"
  label: "inactive"
- compound: "COc1ccc(CNC(=O)c2cncc(OC)c2)cc1"
  label: "inactive"
- compound: "Cc1ccc(-n2cc(C(=O)N3CCCCC3)nn2)cc1C"
  label: "inactive"
- compound: "O=C(CCCc1ccccc1)Nc1cccc(Cl)c1"
  label: "inactive"
- compound: "Cc1ccc2c(c1)N(Cc1nc(-c3ccc(C)c(C)c3)no1)C(=O)CO2"
  label: "inactive"
- compound: "NC(=O)c1cc2cc(Br)ccc2oc1=Nc1ccc(F)cc1"
  label: "inactive"
- compound: "O=C(COc1ccc(F)cc1)Nc1nnc(C2CC(=O)N(c3ccccc3)C2)o1 (centres undefined)"
  label: "inactive"
- compound: "O=C(NCC(O)c1ccsc1)c1cccc2ccccc12 (centres undefined)"
  label: "inactive"
- compound: "CCS(=O)(=O)Oc1ccccc1-c1nc2cc(Cl)ccc2o1"
  label: "inactive"
- compound: "Cc1cc(C)n(-c2ccc(C(=O)NC3CCCC3)cn2)n1"
  label: "inactive"
- compound: "CCn1cc(C2=CCN(S(=O)(=O)c3cccc(C)c3)CC2)c2cccnc21"
  label: "inactive"
- compound: "Cc1ccc(C2CC(c3ccccc3)Nc3nnnn32)cc1 (centres undefined)"
  label: "inactive"
- compound: "COc1ccc(NCN2C(=O)c3cc(Cl)c(Cl)cc3C2=O)cc1"
  label: "inactive"

Where do the numbers come from? From PubChem BioAssay AID1794808.
